- measured target: µLight (Homo sapiens, UniProt P35372, INS270[…]/V175Q)
- Sequence (P35372 with tags, fused parts or gaps V175Q/INS270[withheld]): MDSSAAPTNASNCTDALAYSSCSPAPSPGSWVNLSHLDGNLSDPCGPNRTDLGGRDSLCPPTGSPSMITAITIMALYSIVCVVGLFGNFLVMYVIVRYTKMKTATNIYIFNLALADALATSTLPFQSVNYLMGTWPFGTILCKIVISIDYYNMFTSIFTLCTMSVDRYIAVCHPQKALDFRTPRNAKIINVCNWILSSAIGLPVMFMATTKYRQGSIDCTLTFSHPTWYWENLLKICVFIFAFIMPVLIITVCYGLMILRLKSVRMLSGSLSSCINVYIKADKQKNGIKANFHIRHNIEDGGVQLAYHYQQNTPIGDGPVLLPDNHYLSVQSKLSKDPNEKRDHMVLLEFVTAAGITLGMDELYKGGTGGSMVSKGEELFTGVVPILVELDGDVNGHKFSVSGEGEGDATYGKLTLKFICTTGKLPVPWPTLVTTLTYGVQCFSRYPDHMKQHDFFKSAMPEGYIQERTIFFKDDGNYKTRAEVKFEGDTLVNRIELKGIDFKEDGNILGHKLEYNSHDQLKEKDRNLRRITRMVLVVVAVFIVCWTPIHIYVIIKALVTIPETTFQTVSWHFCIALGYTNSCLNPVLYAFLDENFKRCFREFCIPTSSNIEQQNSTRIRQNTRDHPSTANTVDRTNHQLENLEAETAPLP
- Type: cell-based
- experimental conditions: read-out: μLight EC50
recorded endpoint: EC50 (µM)
Numbers only, in µM.

Please report EC50 for the following compound: C=CCN1C[C@H](C)N([C@@H](c2ccccc2)c2ccc(C(=O)N(CC)CC)cc2)C[C@H]1C
0.0873

* * *

- measured target: µLight (Homo sapiens, UniProt P35372, INS270[…]/V175Q)
- Format: cell-based
- experimental conditions: read-out: μLight EC50
Where no end group is shown, it is not given here.
recorded endpoint: EC50 (µM)
One number for each entry, in µM.

Sample records with EC50:
YGGFLRRQF [DynB9, Dynorphin B9]
3.76
YGGFLRKYP [β-neoendorphin]
6.31

// next item, EC50 requested
Retrieve EC50 measured for YGGFMRRVGRPEWWMDYQ [BAM18] and print it.
0.186
